- EXPERIMENTAL_DETAILS: Pharmacokinetic study, intravenous, rats
- Type: in vivo
- CONDITION_NOTES: rat, in vivo; male SD rats, IV 2 mg/kg, 2 mg/ml, DMSO/PEG 400/30% HP-b-CD
MEASURE: half-life (h)

1 = COc1ccc(-c2c(Cl)ncn2-c2ccc(S(N)(=O)=O)cc2)cc1F [Cimicoxib, reference compound]
2 = CS(=O)(=O)c1ccc(-n2cnc(Cl)c2-c2ccccc2)nc1
Given the listed records, identify the one among 1 and 2 with higher half-life. Indicate which entry you chose by stating its label.
2

---

- TESTED_ON: cyclooxygenase-2 (COX-2 enzyme) (Homo sapiens)
- Construct: from tissue; host or cells: heparinised human whole blood from healthy volunteers, stimulated with LPS
- Sequence (P35354 18-604): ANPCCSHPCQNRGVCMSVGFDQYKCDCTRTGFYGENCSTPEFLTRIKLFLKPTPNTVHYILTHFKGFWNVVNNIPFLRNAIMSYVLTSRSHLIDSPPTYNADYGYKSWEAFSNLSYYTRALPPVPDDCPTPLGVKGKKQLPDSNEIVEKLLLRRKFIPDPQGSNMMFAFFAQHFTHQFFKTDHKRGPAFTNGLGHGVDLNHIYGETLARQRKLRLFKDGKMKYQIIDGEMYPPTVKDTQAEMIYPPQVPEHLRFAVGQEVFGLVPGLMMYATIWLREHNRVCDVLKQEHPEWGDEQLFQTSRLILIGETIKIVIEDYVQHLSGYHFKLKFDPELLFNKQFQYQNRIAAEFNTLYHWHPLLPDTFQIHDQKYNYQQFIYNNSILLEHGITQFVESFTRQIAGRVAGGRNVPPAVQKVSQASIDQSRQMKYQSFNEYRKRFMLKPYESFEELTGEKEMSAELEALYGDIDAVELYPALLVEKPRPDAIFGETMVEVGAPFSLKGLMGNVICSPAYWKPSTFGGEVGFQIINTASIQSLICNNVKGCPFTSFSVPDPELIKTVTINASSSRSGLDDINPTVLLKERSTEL
- EXPERIMENTAL_DETAILS: Human whole blood in vitro activity assay, COX-2 (LPS-induced PGE2 by EIA)
- Format: cell-based
- CONDITION_NOTES: LPS, PGE2, read-out: IC50 (μg/mL) COX-2 (converted)
MEASURE: IC50 (nM)

CS(=O)(=O)c1ccc(-n2cnc(Cl)c2-c2ccccc2)cn1 = 3590

1 = COc1ccc(-c2c(Cl)ncn2-c2ccc(S(C)(=O)=O)nc2)cc1
2 = COc1ccc(-c2c(Cl)ncn2-c2ccc(S(N)(=O)=O)cc2)cc1F [Cimicoxib, reference compound]
Kindly compare 1 with 2 and tell me which has the lower IC50 figure. Indicate which entry you chose by stating its label.
1
(1: 253 nM, 2: 471 nM)

A = COc1ccc(-c2c(Cl)ncn2-c2ccc(S(C)(=O)=O)cn2)cc1F
B = CS(=O)(=O)c1ccc(-n2cnc(Cl)c2-c2ccc(F)cc2)cn1
Given the listed records, identify the one among A and B with higher IC50. Indicate which entry you chose by stating its label.
B
(B: 1540 nM, A: 340 nM)
